# credit: the nanobody polyreactivity screen of Harvey et al. (2022)

test: yeast display, Sf9 membrane polyspecificity reagent, FACS + sequencing; frameworks hold sequencing errors
RECORDED METRIC: polyreactivity (PSR sort gate)

Example entries and their recorded answers appear below.
1. QVQLVESGGGLVQAGGSLRLSCAASGRTFRSNTKGGYRQAPGKERELVAAISWSGTRTYYADSVKGRFTISRDNAKNSVYLQMNSLKPEDTAVYYCNAVGFDQPRYYYWGQGTQVTVSS :: high polyreactivity
2. QVQLVESWGGLVQAGGTLRLSCAASGRILYLNAMGWNRQAPGKEREFVAAISKSGGSTYYADSVKGRFTISRDNAMNSVYLQMNSLKPEDTAVYYCATRYRSAEYDFWGQGTQVTVSS :: low polyreactivity
3. QVQLGESGGGLVQAGGSLRLSCAASGIIFRYYAMGWYRQAPGKERELVAAISSSGVSTYYADSVKGRFTISRDNAQNTVYLQMNSLKPEDTAVYYCAAVTTWRMDYWGQGTQVTVSS :: high polyreactivity
4. QVQLVESGGGLVQAGGSLRLSCAASGRIFWYYSMGRYRQAPATEREVVATITTRSGSTYYADSVKGRFTISRDNAKNTVYLQMNSMKPEDTAGYYCAADWPLLYTGSHSQTKYGYWGQGTQVTVSS :: high polyreactivity

### Prompt Find the recorded polyreactivity (PSR sort gate) belonging to QFQLVESGGGLVQAGGSLRLSCAASGFTIYLYTMGWYRQAPGKERELVATISWSGASTYYADSVKGRFTISRDNAKNTVYLQMNSLKPEDTAVYYCATRYRYRYWGQGTQVTVSS and report it.
### Response high polyreactivity

### Prompt Entry to check: QVQIVESGGGLVQAGGSLRLSCAASGSTFAYYTMGWYRQAPGKDRELVAAISASGGSTYYADSVKGRFTISRDNGKNTVYLQMNCLKPEVSEVYYCNAESYLTGWWVDYWGQGSQVTVSS
### Response low polyreactivity

* * *

experiment: yeast display, Sf9 membrane polyspecificity reagent, FACS + sequencing; frameworks hold sequencing errors
RECORDED METRIC: polyreactivity (PSR sort gate)

1. QVQLVESGGGLVQAGGSLRLSCAASGSILSQYAMGWYRQAPGKERELVAAITYSGGSTHYADSVKGRFTISRDNAKNTVYLEMNSLKPEDTAVYYCAAKGPRRWGSGLDYWGQGTHVTVSS :: low polyreactivity
2. QEQLQESGGGLVQAGGSLRLSCAASGNIYDADIMGWYRQAPGKERELVTSITDGGSTNYADSVKGRFTISRDNAKNTVYLQMNSLKPEDTAVYFCAAIAYPVIPTSFDYNSDYSYWGQGTQVTVSS :: low polyreactivity
3. QVQLVESGGGLVQAGGSLRLSCAASGFIFANAIGWYRQAPGKEMELVAAITWSGDSTYYADSVKGRFTISRDNAKNTVYLQMNSLKPEDTAVYYCAAVVTNAYRYDYWGQGTQVTVSS :: low polyreactivity
4. QVQHVESGGGLVQAGGSLRLSCAASGRTFRWYAMGWYRHAPGKERELVAGISRGGGSTTYADSVKGRFTISRDYAKNTVYLQMNSLKPEDTAVYYCAAYWGRTRYYGYDYYYWGQGTQLTVSS :: high polyreactivity
5. QVQLVESGGGLVHAGGSLRLICAGSGFTFRGYAMGWYRQAPGKEMELVADITSGGSTYYADSVKGRFTISRDNAKNTVYLQMNSLKPEDTAVYYCAPRQRSRSRYDYWGQGTQVTVSS :: high polyreactivity
6. QVQLVESGGGLVQAGGSLRLSCAASGFTLAFYGMGWYRQAPGKERELVAAISWSGDSTYYADSVKGRFTISRDNAKNTVYLQMNSLKPEDTAVYYCAKPKRRFYDRPSDYWGQGTQVTVSS :: high polyreactivity
7. QVQLVQSGGGLVQAVGSLRLICADSGSIFVPNAMGWYRQALGKERELVAAITYSGVDTYYADSVKGRFTISRDNAKNSVYLQMNSLKPEDTAVYYCAADNGRVGYDYWGLGTQVTVSS :: low polyreactivity
8. QVQLVESAGGLVQAGGSLRLSCAASGLTFVPNAMGWYRQAPGKEREFVAAISNNGGRTYYADSVKGRFTISRDNAKNTVYLEMNSLKPEDTAVYYCAKFLSPGERHSYDYWGQGTQVTVSS :: high polyreactivity

Now, please, on to the next sequence.
### Prompt I would be grateful if you could share the reported polyreactivity (PSR sort gate) for QVQLVESGGGLVQAGGSLRLSCAASGRTFYVYAMGWYRQAPGKERELVASISWIGDDTYYADSVKGRFTISRDNAKNTVYLQMNSLKPEDTAVYYCAVLVLGDYGYEYWGQGTQVTVSS .
### Response high polyreactivity

* * *

assay: yeast display, Sf9 membrane polyspecificity reagent, FACS + sequencing; frameworks hold sequencing errors
RECORDED METRIC: polyreactivity (PSR sort gate)

Some sequences with recorded polyreactivity (PSR sort gate):
1. QVQLVESGGGLVQAGGSLRLSCAASGFTFAWYAMGWYRPAPGKERELVAAISGSGGRTYYADSVKGRFTISRDNAKNTVYLQMNSLKPEDTAVYYFNTDRYWGKGDYWGQGTLVTVSS :: high polyreactivity
2. QVQLVDSGGGLVQAGGSLPLSCAASGRIIAHYALGWYRQAPGKERELVAAIRRSGVSTYYADSVKGRFTISRDNANNTVYLQMHSLKPEDTAVYYCNARAYVSPYDYWGHGTQVTVSS :: low polyreactivity
3. QVQLVESGGGLVQAGGSLRLSCAASGFTFVSYAMGWYRQAPGKERELVASITWTGGSTYYADSVKGRFTISRDNAKNTVYLQMNSLKPEDTAVYYGAAQQFYSGILGRYYWGQGTQVTVSS :: low polyreactivity
4. QVQLVESGRGLVQTGGSLRLSCAASGLVNAMGWYRQAPWKERELVAAISSGGSTYYADSVKGRFTISRDNAKNTVYLQMNSLKPEDTAVYYCNAVYFRHYGYGYWGQGTQVTVSS :: low polyreactivity
5. QVQLVESGGGLVQAGGSLRLSCAASGRIFGYYAMGWYRQAPGKERELVAAISYNVVSTNYADSVKGRFTISRDNPKNTVYLQMNSLKPEDTAVYYCAADYGRPYTAFDYWGQGTQVTVSS :: low polyreactivity
6. QVQLVESGGGLVQAGGSLRLTCAASGFIFEHYAMGWYRQAPGKERELVARISWRGGSTYYADSVKGRFTISRDNAKNTVYFQMNSLKPEDTAVYYCNAQEVVYFGYYPSDYWGQGTQVTVSS :: low polyreactivity
7. QVQLVESGGGLVQAGGSLRLSCAASGFTLYSYVMGWYRQAPGKERELVAAISRSGVSTHYADSVKGRFTISRDNAKNTVYLQMNSLKPEDTAVYYCNKVYYYVGTLDYWGQGTQVTVSS :: high polyreactivity

// moving on: another record for polyreactivity (PSR sort gate)
### Prompt Could you share which polyreactivity (PSR sort gate) value was measured for QVQLVESGGGLVQAGGSLRLSCAASASIFAYKAIGWYRQAPGKESELVASITNGGSTYYADSVKGRFTISRDNAKNTVYLQMNSLKQEDTAVYYCNTDFDVYSVGYDGYWGQGTQVTVSS ?
### Response low polyreactivity

* * *

experiment: yeast display, Sf9 membrane polyspecificity reagent, FACS + sequencing; frameworks hold sequencing errors
RECORDED METRIC: polyreactivity (PSR sort gate)

Observe how each entry below is paired with its result.
1. QVQLVESGGGLVQAGGSLRLSCAASGLIFWRYDMGWYRQAPGKERELVAVITSGGNTYYADAVKGRFRISRDNAKNTVYLQMNSLKPEDTAVYYCNADTWRDDYDYWGQGTQVTVAS :: low polyreactivity
2. QVQLVESGGGLVQAGGSLRLSCAASGSIFSGWYTMGWYRQAPGKERELVASISISTTDTYYADSVKGRFTISRDNAKNTVYLQMNSLKPEDTAVYYCADEVTSFSFGGDATEYYWGQGTQVTVSS :: low polyreactivity
3. QVKLVESGGGLVQAGGSLRLSCAASGGTFQPNARGWNRQAPGKERELVAAISWSDGSTYYADSVKGRFTISRDNAKNTVYLQMNSLKPEDTAVYYCAADFTYYDSPYRDYNYESWGQGTQVTVSS :: low polyreactivity
4. QVHLVESVGGLVQAGGSLRLSSAASGIIFRSNAMGWYRQAPGKERELVAAISSRGSSTNYADSVKGRFTISRDNAKNTVYLQMNSLNPEDTAVYYCNARGSRVDQTESEYWGQGTQVTVSS :: high polyreactivity
5. QVQLEESGGGLVQAGGSLRLSCAASGFIFDSYAMGWYRQAPGKERELVAAISWSGGRTYYADSVKGRFTISRDNAKNTVYLQMNSLKPEDTAVYYCNVLVHSLSGRKYDYWGQGTQVTVSS :: high polyreactivity
6. PVQLVESGGGLVQAGGSLRLSCAASGIIFYDYAMGWYRQAPGKERELGATITSGGSTNYADSVKGRFTISRDNAKNTVYLQLNSLKPEDTAVYYCAAGRGLILGGVYGYDYWGQGTQVTVSS :: low polyreactivity
7. QVQLVESGGGLVQAGGSLRLSCAASGRTFLPYAMGWYRQAPGKERELVADINWGGGSTYYADSVKGRFTISRDNATNTVYLQMNSLKQEDTALYYCATDDGYQYWYYQWYYWGQGTQVTVSS :: low polyreactivity

Next sequence, please.
### Prompt Please report the recorded polyreactivity (PSR sort gate) for QVQLVESGGRLVQAGGRLRLSCAASGRTILLYAMGRYRQAPGKESELVPAIRSSTVSTYYADSVKGRFTISRDNAKNTVYLQMYSLKPEDTAVYYCAASRPKYGPSGVRYNYWGQGTQVTVSS .
### Response high polyreactivity
